Entry source: patent EP0979823B1

System: J774 cells
Assay: ACAT inhibitory activity (anti-foamation activity) in J774 cells
Format: cell-based
Conditions: ratio HepG2 / J774
# IC50 (HepG2) / IC50 (J774) values compiled below
Format: numeric value only, no unit, no commentary.

Known IC50 (HepG2) / IC50 (J774) results, listed for orientation:
- COMPOUND: "CCCCCCCN(CCCCCSc1nc(-c2ccccc2)c(-c2ccccc2)[nH]1)c1nc2ccccc2o1 [Control 4, reference compound]"
  RESULT TYPE: "IC50 (HepG2) / IC50 (J774)"
  MEASURED NUMBER: 6.3
- COMPOUND: "Cc1cc(SC(C)C)c(NC(=O)CCCCCCSc2nc3cccc(C(F)(F)F)c3o2)c(SC(C)C)n1"
  RESULT TYPE: "IC50 (HepG2) / IC50 (J774)"
  MEASURED NUMBER: 11.1
- COMPOUND: "Cc1cc(SC(C)C)c(NC(=O)CCCCCCCCSc2nc3cccc(C(F)(F)F)c3o2)c(SC(C)C)n1"
  RESULT TYPE: "IC50 (HepG2) / IC50 (J774)"
  MEASURED NUMBER: 0.6

Now consider a different compound.
Fill in IC50 (HepG2) / IC50 (J774) for record `CSc1cc(C)nc(SC)c1NC(=O)CCCCCCCSc1nc2ccccc2s1`
8.1

###

Tested on: HepG2 cells
Assay: ACAT inhibitory activity (anti-foamation activity) in HepG2 cells
Assay type: cell-based
Settings: Homo sapiens, 10 µg/ml 25-OH cholesterol, 18 hours, cholesterol ester = TC minus FC per protein, read-out: Enzyme (HepG2) IC50
RESULT TYPE: IC50 (nM)
Numeric only. Scale: nM

- COMPOUND: "CSc1cc(C)nc(SC)c1NC(=O)CCCCCSc1nc2ccccc2s1"
  TESTED ON: "HepG2 cells"
  UNIT DESCRIPTOR: "nM"
  MEASURED NUMBER: 350
- COMPOUND: "CSc1cc(C)nc(SC)c1NC(=O)CCCCCCCSc1nc2cccc(C(F)(F)F)c2o1"
  TESTED ON: "HepG2 cells"
  UNIT DESCRIPTOR: "nM"
  MEASURED NUMBER: 4.4
- COMPOUND: "CCSc1cc(C)nc(SCC)c1NC(=O)CSc1nc2ccccc2[nH]1"
  TESTED ON: "HepG2 cells"
  UNIT DESCRIPTOR: "nM"
  MEASURED NUMBER: 5400
- COMPOUND: "Cc1cc(SC(C)C)c(NC(=O)CCCCCCSc2nc3c(C)c(Cl)cc(C(C)C)c3o2)c(SC(C)C)n1"
  TESTED ON: "HepG2 cells"
  UNIT DESCRIPTOR: "nM"
  MEASURED NUMBER: 15
- COMPOUND: "CCCCCCCCCN(CC(C)(C)C)C(=O)N[C@H]1CCCC[C@@H]1OC(=O)CCNC(=O)C1OC(C)(C)OCC1(C)C (stereo partly shown) [Control 3, reference compound]"
  TESTED ON: "HepG2 cells"
  UNIT DESCRIPTOR: "nM"
  MEASURED NUMBER: 1300
- COMPOUND: "CCCCCCCN(CCCCCSc1nc(-c2ccccc2)c(-c2ccccc2)[nH]1)c1nc2ccccc2o1 [Control 4, reference compound]"
  TESTED ON: "HepG2 cells"
  UNIT DESCRIPTOR: "nM"
  MEASURED NUMBER: 750
- COMPOUND: "CC(C)c1cccc(C(C)C)c1NC(=O)CCCCCSc1nc2ccccc2o1 [Control 5, reference compound]"
  TESTED ON: "HepG2 cells"
  UNIT DESCRIPTOR: "nM"
  MEASURED NUMBER: 1600
- COMPOUND: "CCSc1cc(C)nc(SCC)c1NC(=O)CSc1nc2ccccc2o1"
  TESTED ON: "HepG2 cells"
  UNIT DESCRIPTOR: "nM"
  MEASURED NUMBER: 1800
- COMPOUND: "CCSc1cc(C)nc(SCC)c1NC(=O)CCCCCCCCSc1nc2ccccc2o1"
  TESTED ON: "HepG2 cells"
  UNIT DESCRIPTOR: "nM"
  MEASURED NUMBER: 63
- COMPOUND: "CC(C)c1cccc(C(C)C)c1NC(=O)C(C)(C)CCCOc1ccc2c(c1)C=C(c1nccn1C)C(CCc1ccc(F)cc1)O2 (stereo not shown) [Control 1, reference compound]"
  TESTED ON: "HepG2 cells"
  UNIT DESCRIPTOR: "nM"
  MEASURED NUMBER: 5300

Fill in IC50 for record `CCSc1cc(C)nc(SCC)c1NC(=O)CCCCCSc1nc2ccccc2o1`
2600

Fill in IC50 for record `CSc1cc(C)nc(SC)c1NC(=O)CCCCCCCSc1nc2ccccc2s1`
29

Fill in IC50 for record `CCSc1cc(C)nc(SCC)c1NC(=O)CCCCCCSc1nc2c(C)c(Cl)cc(C(C)C)c2o1`
6.2
